- Test system: Hara (NRF2 pathway wild type cell line with low AKR1C3 expression)
- assay-comment: In vitro cell proliferation assay (CellTiter-Glo), Hara
- Assay type: cell-based
- study-conditions: 72 h; Hara cells, 3 days, CellTiter-Glo, top concentration 10 μM; read-out: HARA Qualified absolute AC50

compound | target-desc | AC50
CCN1c2ccc(F)cc2C(=O)CC12CCN(C(=O)NCc1ccc(F)cc1)CC2 [Example 6] | Hara (NRF2 pathway wild type cell line with low AKR1C3 expression) | > 10 µM
CN1c2ccc(F)cc2C(=O)CC12CCN(C(=O)NCc1ccc(N)cc1)CC2 [Example 76] | Hara (NRF2 pathway wild type cell line with low AKR1C3 expression) | > 10 µM
Nc1ccc(CNC(=O)N2CCC3(CC2)CC(=O)c2cc(F)ccc2N3)cc1 [Example 89] | Hara (NRF2 pathway wild type cell line with low AKR1C3 expression) | > 10 µM
O=C1CC2(CCN(C(=O)NCc3ccno3)CC2)Nc2ccc(F)cc21 [Example 124] | Hara (NRF2 pathway wild type cell line with low AKR1C3 expression) | > 10 µM
O=C1CC2(CCN(C(=O)NCc3ccc(F)cc3O)CC2)Nc2ccc(F)cc21 [Example 43] | Hara (NRF2 pathway wild type cell line with low AKR1C3 expression) | > 10 µM
NC(=O)c1cc(CNC(=O)N2CCC3(CC2)CC(=O)c2cc(F)cc(F)c2N3)ccc1F [Example 11] | Hara (NRF2 pathway wild type cell line with low AKR1C3 expression) | > 10 µM
Nc1cc(CNC(=O)N2CCC3(CC2)CC(=O)c2cc(F)ccc2N3)c(F)cc1F [Example 126] | Hara (NRF2 pathway wild type cell line with low AKR1C3 expression) | > 10 µM
O=C1CC2(CCN(C(=O)NCc3cccc4nonc34)CC2)Nc2ccc(F)cc21 [Example 141] | Hara (NRF2 pathway wild type cell line with low AKR1C3 expression) | > 10 µM
Nc1ccc(CNC(=O)N2CCC3(CC2)CC(=O)c2cc(F)ccc2N3)c(C(F)(F)F)c1 [Example 104] | Hara (NRF2 pathway wild type cell line with low AKR1C3 expression) | > 10 µM
